- System: TYKNU
- ASSAY: fractional viability relative to vehicle; higher = less growth inhibition
- CONDITION_PARAMETERS: 2uM; 72 h; genotype: DNM1L knockout (sgDNM1L #1)
Whole data set: some 2,000 compounds, median “fractional viability relative to vehicle” near 0.91, cut for the lowest 2% near 0.045. The entries come from a sample that favours the lowest values as a whole.
PROPERTY_LABEL: fractional viability
No unit in the answer, only the number.

What does the record list as fractional viability for "N#C/C(=C\c1ccc(O)c(O)c1)C(=O)NCc1ccccc1" ? 0.921

Given the compound "C[C@H](NC(=O)/C(C#N)=C/c1cccc(Br)n1)c1ccccc1" , what is its reported fractional viability? 0.9

Dear colleague, I am looking for the recorded fractional viability of the following compound: CN1CCN(c2ccc3nc(-c4c(N)c5c(F)cccc5[nH]c4=O)[nH]c3c2)CC1 [Dovitinib (TKI-258, CHIR-258)] 0.523

Which fractional viability is listed for "Cc1[nH]c(/C=C2\C(=O)Nc3ccc(S(=O)(=O)N(C)c4cccc(Cl)c4)cc32)c(C)c1C(=O)N1CCN(C)CC1" ? 1.02

Consider the compound shown here: "CN(C)Cc1c(C(=O)NCCOc2ccc(C(=O)NO)cc2)oc2ccccc12" What is its recorded fractional viability? 0.184

# input compound: "C#CC[C@H](c1nc2cc(Cl)ccc2c(=O)n1Nc1ccccc1)N(CCCN)C(=O)c1cccc(Cl)c1F" ; wanted: its fractional viability 0.249

Data request, read-out fractional viability, for "Cc1ccc(C(=O)N(CCCN)[C@@H](c2nc3cc(Cl)ccc3c(=O)n2Cc2ccccc2)C(C)C)cc1" 0.325

What fractional viability value was documented for this compound, "O=C(O)C1=C[C@@H](O)[C@@H](O)[C@H](O)C1" ? 0.996

# get_value(readout='fractional viability', item= "O=C(Nc1ccc(OC(F)(F)F)cc1)c1sccc1NCc1ccnc2ccccc12" ) 0.926

###

- Test system: TYKNU
- ASSAY: fractional viability relative to vehicle; TYKNU is a high-grade serous ovarian cancer line; higher = less growth inhibition
- CONDITION_PARAMETERS: 2uM; 72 h; genotype: DNM1L knockout (sgDNM1L #1)
Where a name gives a salt, the structure may show the parent alone. The full ranking holds about 2,000 compounds; the median of “fractional viability relative to vehicle” is about 0.91, and the lowest 2% start at about 0.045. Only a selection was taken, and the lowest values are over-represented in it overall.
// NB: equality with 0.8 counts as Criterion not met; only fractional viability strictly below is Criterion met

I wonder whether C[C@@H]1O[C@@H](O[C@H]2[C@H](Oc3cc(O)c4c(c3)O[C@H](c3ccc(O)cc3)CC4=O)O[C@H](CO)[C@@H](O)[C@@H]2O)[C@H](O)[C@H](O)[C@H]1O [Naringin] has fractional viability below 0.8. Can you tell? Criterion not met

Record C/C=C1\NC(=O)[C@H]2CSSCC/C=C/[C@H](CC(=O)N[C@H](C(C)C)C(=O)N2)OC(=O)[C@H](C(C)C)NC1=O [Romidepsin (FK228, Depsipeptide)] : is its fractional viability strictly below 0.8? Criterion met

Here's an entry: "O=C(NC[C@H](O)CO)c1ccncc1Nc1ccc(I)cc1F" . Is its fractional viability below 0.8? Criterion met

Confirm or reject: fractional viability of "CN(C)CCOc1ccc(-c2nc(-c3ccncc3)c(-c3ccc4c(c3)CC/C4=N\O)[nH]2)cc1" lies strictly below 0.8 Criterion met

Please check: fractional viability for "CN(C)c1ccc(-c2nc3ncc(Cl)c(N4CCN(CC(=O)Nc5nccs5)CC4)c3[nH]2)cc1" , strictly under 0.8 or not? Criterion not met

Please state whether fractional viability is below 0.8 for CCN(CC)CCOc1ccc(C(=C(Cl)c2ccccc2)c2ccccc2)cc1 [Clomifene citrate] Criterion met

Given the entry "Oc1ccc(-c2nc(-c3ccc(F)cc3)c(-c3ccncc3)[nH]2)cc1" , would its reported fractional viability be below 0.8? Criterion not met
